Just for reference, paper doi:10.1101/2023.02.27.530254 is where these values come from.

Biological target: hCB2 (Homo sapiens, UniProt P34972)
Sequence (P34972 whole entry): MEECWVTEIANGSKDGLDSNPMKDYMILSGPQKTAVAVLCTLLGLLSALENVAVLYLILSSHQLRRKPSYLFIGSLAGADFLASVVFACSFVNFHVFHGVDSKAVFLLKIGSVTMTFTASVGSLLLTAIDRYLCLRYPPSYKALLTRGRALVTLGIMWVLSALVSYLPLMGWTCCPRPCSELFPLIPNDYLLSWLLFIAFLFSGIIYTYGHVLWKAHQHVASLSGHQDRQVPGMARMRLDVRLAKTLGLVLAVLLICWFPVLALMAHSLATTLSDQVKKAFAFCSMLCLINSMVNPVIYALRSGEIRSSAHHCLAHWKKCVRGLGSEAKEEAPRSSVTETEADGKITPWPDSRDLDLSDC
Assay: bioSens-All ebBRET effector biosensor signaling profiling, HEK293
Type: cell-based
Design: host or cells: HEK293 (HEK293SL clone), transient
Conditions: hCB2 Gi1 pEC50 [95% CI]
ASSAY_READOUT: EC50 (nM)
State the answer as a number, implicitly in nM.

Problem: # get_value(readout='EC50', item= COC(=O)C(C)(NC(=O)c1cc(C)n(-c2cccc(C(F)(F)F)c2)n1)c1cccs1 (stereo not shown) )
Result: 2.63

----------
Hi there, I'd appreciate the recorded EC50 for every entry that follows.
Target: UniProt P34972
Experiment: bioSens-All ebBRET effector biosensor signaling profiling, HEK293
Type: cell-based
Parameters: host or cells: HEK293 (HEK293SL clone), transient
Details: hCB2 Gi1 EC50 [95% CI]
State the answer as a number, implicitly in nM.

Problem: # get_value(readout='EC50', item= COC(=O)[C@@](C)(NC(=O)c1cc(C)n(-c2cccc(C(F)(F)F)c2)n1)c1cccs1 )
Result: 3.55

Problem: # get_value(readout='EC50', item= COC(=O)C(C)(NC(=O)c1cc(C)n(-c2cccc(C(F)(F)F)c2)n1)c1cccs1 (centres unmarked) )
Result: 2.7

----------
Hi there, I'd appreciate the recorded EC50 for every entry that follows.
Target: hCB1 (Homo sapiens, UniProt P21554)
Sequence (P21554 whole entry): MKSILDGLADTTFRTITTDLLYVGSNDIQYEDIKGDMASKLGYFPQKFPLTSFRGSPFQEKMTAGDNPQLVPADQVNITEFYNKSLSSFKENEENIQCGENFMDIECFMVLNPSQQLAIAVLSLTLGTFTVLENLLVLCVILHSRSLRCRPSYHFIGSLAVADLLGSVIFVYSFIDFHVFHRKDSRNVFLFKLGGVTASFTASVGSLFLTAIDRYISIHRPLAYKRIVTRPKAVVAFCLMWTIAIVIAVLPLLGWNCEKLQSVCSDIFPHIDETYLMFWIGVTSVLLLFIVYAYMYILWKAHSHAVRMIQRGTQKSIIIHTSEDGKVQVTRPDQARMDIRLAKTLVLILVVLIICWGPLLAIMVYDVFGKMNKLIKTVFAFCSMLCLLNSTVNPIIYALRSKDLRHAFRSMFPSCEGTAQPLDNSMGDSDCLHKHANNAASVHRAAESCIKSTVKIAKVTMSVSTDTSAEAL
Assay: bioSens-All ebBRET effector biosensor signaling profiling, HEK293
Assay type: cell-based
Parameters: host or cells: HEK293 (HEK293SL clone), transient
Details: hCB1 Gz pEC50 [95% CI], Gz sensor
State the answer as a number, implicitly in nM.

Problem: # get_value(readout='EC50', item= COC(=O)C(C)(NC(=O)c1cc(C)n(-c2cccc(C(F)(F)F)c2)n1)c1cccs1 (centres unmarked) )
Result: 0.427

Problem: # get_value(readout='EC50', item= COC(=O)[C@@](C)(NC(=O)c1cc(C)n(-c2cccc(C(F)(F)F)c2)n1)c1cccs1 )
Result: 0.347

----------
Molecular target: hCB2 (Homo sapiens)
Experiment: bioSens-All ebBRET effector biosensor signaling profiling, HEK293
Format: cell-based
Design: host or cells: HEK293 (HEK293SL clone), transient
Conditions: hCB2 Gz EC50 [95% CI]
Hi there, I'd appreciate the recorded EC50 for every entry that follows.
State the answer as a number, implicitly in nM.

Problem: # get_value(readout='EC50', item= COC(=O)[C@@](C)(NC(=O)c1cc(C)n(-c2cccc(C(F)(F)F)c2)n1)c1cccs1 )
Result: 2.6

Problem: # get_value(readout='EC50', item= COC(=O)C(C)(NC(=O)c1cc(C)n(-c2cccc(C(F)(F)F)c2)n1)c1cccs1 (centres unmarked) )
Result: 1.36

----------
Hi there, I'd appreciate the recorded pEC50 for every entry that follows.
Target: hCB2 (Homo sapiens, UniProt P34972)
Experiment: bioSens-All ebBRET effector biosensor signaling profiling, HEK293
Type: cell-based
Design: host or cells: HEK293 (HEK293SL clone), transient
Details: hCB2 GoB pEC50 [95% CI]
Worth noting: pEC50 values are minus log10 of concentrations stated in mol/L.

Problem: # get_value(readout='pEC50', item= COC(=O)[C@@](C)(NC(=O)c1cc(C)n(-c2cccc(C(F)(F)F)c2)n1)c1cccs1 )
Result: 8.58

Problem: # get_value(readout='pEC50', item= COC(=O)C(C)(NC(=O)c1cc(C)n(-c2cccc(C(F)(F)F)c2)n1)c1cccs1 (centres unmarked) )
Result: 8.60

----------
Biological target: hCB1 (Homo sapiens, UniProt P21554)
Assay: bioSens-All ebBRET effector biosensor signaling profiling, HEK293
Format: cell-based
Set-up: host or cells: HEK293 (HEK293SL clone), transient
Conditions: hCB1 Gi1 pEC50 [95% CI]
ASSAY_READOUT: pEC50
Worth noting: pEC50 values are minus log10 of concentrations stated in mol/L.

Problem: # get_value(readout='pEC50', item= Cn1nc(-c2nnc(C(C)(C)Oc3ccc(Cl)cc3)o2)c2ccccc2c1=O [‘0450] )
Result: 4.30

Problem: # get_value(readout='pEC50', item= COC(=O)[C@@H]1[C@@H]2CCC[C@@H]2CN1C(=O)c1cc(C)n(-c2cccc(C(F)(F)F)c2)n1 [‘6439] )
Result: 7.20

----------
Assay: Pharmacokinetics in plasma, brain and CSF
Assay type: in vivo, CD-1 mice
Details: male, CD-1, mouse, brain, ip; 0.2 mg/kg i.p., mice; read-out: AUC0→inf brain tissue (converted)
ASSAY_READOUT: AUC(0-inf) (ng·h/mL)
State the answer as a number, implicitly in ng·h/mL.

Problem: # get_value(readout='AUC(0-inf)', item= COC(=O)C(C)(NC(=O)c1cc(C)n(-c2cccc(C(F)(F)F)c2)n1)c1cccs1 (stereo not shown) [‘4042] )
Result: 53

----------
Biological target: UniProt P21554
Experiment: bioSens-All ebBRET effector biosensor signaling profiling, HEK293
Type: cell-based
Design: host or cells: HEK293 (HEK293SL clone), transient
Details: hCB1 G13 pEC50 [95% CI], G13 sensor
ASSAY_READOUT: pEC50
Worth noting: pEC50 values are minus log10 of concentrations stated in mol/L.

Problem: # get_value(readout='pEC50', item= COC(=O)C(C)(NC(=O)c1cc(C)n(-c2cccc(C(F)(F)F)c2)n1)c1cccs1 (stereo not shown) )
Result: 8.69

----------
Hi there, I'd appreciate the recorded EC50 for every entry that follows.
Molecular target: hCB1 (Homo sapiens, UniProt P21554)
Assay: Lance Ultra cAMP accumulation assay (inhibition of forskolin-stimulated cAMP), CHO cells
Assay type: cell-based
Set-up: expressed in transfected cells
Be sure to follow the number with its unit.

Problem: # get_value(readout='EC50', item= COC(=O)[C@@](C)(NC(=O)c1cc(C)n(-c2cccc(C(F)(F)F)c2)n1)c1cccs1 [‘1350] )
Result: 1.6 nM

Problem: # get_value(readout='EC50', item= COC(=O)[C@](C)(NC(=O)c1cc(C)n(-c2cccc(C(F)(F)F)c2)n1)c1cccs1 [‘8690] )
Result: 473 nM

Problem: # get_value(readout='EC50', item= COC(=O)C(NC(=O)c1cc(C)n(-c2cccc(C(F)(F)F)c2)n1)c1cccs1 (stereo not shown) [‘60154] )
Result: 316 nM

Problem: # get_value(readout='EC50', item= COC(=O)C(C)(NC(=O)c1cc(C)n(-c2cccc(C(F)(F)F)c2)n1)c1cccs1 (stereo not shown) [‘4042] )
Result: 3.3 nM

----------
Biological target: hCB2 (Homo sapiens)
Experiment: Tango β-arrestin-2 recruitment assay, HTLA cells
Type: cell-based
Set-up: expressed in transfected cells; host or cells: HTLA (transient)
ASSAY_READOUT: pEC50
Worth noting: pEC50 values are minus log10 of concentrations stated in mol/L.

Problem: Tell me reported pEC50 for Cc1cc(C(=O)N2CC3(CCC3)C2C2CCCO2)nn1-c1cccc(C(F)(F)F)c1 (centres unmarked) [‘3737] , tested with hCB2 (Homo sapiens).
Result: 5.82

Problem: Tell me reported pEC50 for COC(=O)C(C)(NC(=O)c1cc(C)n(-c2cccc(C(F)(F)F)c2)n1)c1cccs1 (centres unmarked) [‘4042] , tested with hCB2 (Homo sapiens).
Result: 7.47

Problem: Tell me reported pEC50 for COC(=O)C(NC(=O)c1cc(C)n(-c2cccc(C(F)(F)F)c2)n1)c1cccs1 (centres unmarked) [‘60154] , tested with hCB2 (Homo sapiens).
Result: 5.48

Problem: Tell me reported pEC50 for COC(=O)[C@@H]1[C@@H]2CCC[C@@H]2CN1C(=O)c1cc(C)n(-c2cccc(C(F)(F)F)c2)n1 [‘6439] , tested with hCB2 (Homo sapiens).
Result: 6.47

Problem: Tell me reported pEC50 for COC(=O)[C@@H]1[C@@H]2CCC[C@@H]2CN1C(=O)c1cc(C)n(-c2cccc(Cl)c2)n1 [‘10010] , tested with hCB2 (Homo sapiens).
Result: 6.25

----------
Molecular target: hCB1 (Homo sapiens, UniProt P21554)
Test: bioSens-All ebBRET effector biosensor signaling profiling, HEK293
Assay type: cell-based
Design: host or cells: HEK293 (HEK293SL clone), transient
Conditions: hCB1 Gi1 EC50 [95% CI], Gi1 sensor
pEC50: −log10 of the molar value.
Given measured pEC50, output MET if it is greater than or equal to 8 and NOT MET if not.

Problem: Please check the record Cc1cc(C(=O)NC(c2ccco2)c2ccco2)nn1-c1cccc(C(F)(F)F)c1 and state if its pEC50 is at or above 8.
Result: NOT MET

Problem: Please check the record COC(=O)C(C)(NC(=O)c1cc(C)n(-c2cccc(C(F)(F)F)c2)n1)c1cccs1 (stereo not drawn) and state if its pEC50 is at or above 8.
Result: MET

Problem: Please check the record COC(=O)C(NC(=O)c1cc(C)n(-c2cccc(C(F)(F)F)c2)n1)c1cccs1 (stereo not drawn) and state if its pEC50 is at or above 8.
Result: MET

Problem: Please check the record COC(=O)C(NC(=O)c1cc(C)n(-c2cccc(F)c2)n1)c1cccs1 (stereo not drawn) and state if its pEC50 is at or above 8.
Result: NOT MET

Problem: Please check the record COC(=O)[C@](C)(NC(=O)c1cc(C)n(-c2cccc(C(F)(F)F)c2)n1)c1cccs1 and state if its pEC50 is at or above 8.
Result: NOT MET

Problem: Please check the record Cc1cc(C(=O)NC(c2ccccc2)c2ccco2)nn1-c1cccc(C#N)c1 (stereo not drawn) and state if its pEC50 is at or above 8.
Result: NOT MET
